So I've got a bunch of compounds here, and I need their pIC50 values.
- targetEntity: CDK13 (Homo sapiens (Human), UniProt Q14004)
- Sequence (Q14004 whole entry, looked up): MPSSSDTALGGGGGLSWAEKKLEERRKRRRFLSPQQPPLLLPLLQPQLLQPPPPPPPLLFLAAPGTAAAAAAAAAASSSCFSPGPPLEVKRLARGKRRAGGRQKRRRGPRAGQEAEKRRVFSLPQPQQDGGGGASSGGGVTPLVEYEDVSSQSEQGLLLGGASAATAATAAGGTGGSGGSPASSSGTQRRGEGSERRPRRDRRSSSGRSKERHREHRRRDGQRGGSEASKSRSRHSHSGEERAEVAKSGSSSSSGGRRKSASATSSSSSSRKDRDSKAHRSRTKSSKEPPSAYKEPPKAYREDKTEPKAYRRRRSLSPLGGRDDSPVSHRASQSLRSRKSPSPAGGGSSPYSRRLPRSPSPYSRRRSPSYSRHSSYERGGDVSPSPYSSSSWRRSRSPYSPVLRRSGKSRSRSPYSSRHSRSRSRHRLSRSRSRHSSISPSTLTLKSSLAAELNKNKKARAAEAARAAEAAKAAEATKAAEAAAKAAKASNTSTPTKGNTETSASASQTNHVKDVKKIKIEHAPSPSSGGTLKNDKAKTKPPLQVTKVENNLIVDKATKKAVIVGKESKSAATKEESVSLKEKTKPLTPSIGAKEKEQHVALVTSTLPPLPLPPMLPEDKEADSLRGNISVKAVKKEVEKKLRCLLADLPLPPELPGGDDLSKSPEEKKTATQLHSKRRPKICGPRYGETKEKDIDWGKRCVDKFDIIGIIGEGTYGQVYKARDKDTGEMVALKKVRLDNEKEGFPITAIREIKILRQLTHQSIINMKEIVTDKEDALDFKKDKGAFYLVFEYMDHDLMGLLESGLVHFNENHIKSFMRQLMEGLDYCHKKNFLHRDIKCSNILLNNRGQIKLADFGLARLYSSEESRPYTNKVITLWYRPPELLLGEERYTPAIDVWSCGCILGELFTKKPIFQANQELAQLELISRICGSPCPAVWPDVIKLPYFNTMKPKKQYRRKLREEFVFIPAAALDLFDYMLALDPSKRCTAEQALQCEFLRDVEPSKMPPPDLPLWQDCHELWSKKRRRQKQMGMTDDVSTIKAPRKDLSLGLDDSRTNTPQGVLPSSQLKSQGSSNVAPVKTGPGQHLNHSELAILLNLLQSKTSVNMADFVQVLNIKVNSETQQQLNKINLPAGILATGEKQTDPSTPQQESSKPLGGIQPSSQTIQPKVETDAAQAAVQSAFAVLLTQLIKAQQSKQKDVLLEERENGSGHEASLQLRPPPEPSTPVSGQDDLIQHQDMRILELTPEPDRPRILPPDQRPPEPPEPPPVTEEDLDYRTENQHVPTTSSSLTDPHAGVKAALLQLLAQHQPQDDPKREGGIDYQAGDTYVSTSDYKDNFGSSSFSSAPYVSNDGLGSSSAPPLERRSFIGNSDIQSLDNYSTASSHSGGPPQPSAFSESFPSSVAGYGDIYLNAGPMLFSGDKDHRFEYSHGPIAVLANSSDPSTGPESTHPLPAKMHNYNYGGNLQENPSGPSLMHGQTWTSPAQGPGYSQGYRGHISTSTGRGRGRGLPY
- Sequence (O75909 whole entry partner, looked up): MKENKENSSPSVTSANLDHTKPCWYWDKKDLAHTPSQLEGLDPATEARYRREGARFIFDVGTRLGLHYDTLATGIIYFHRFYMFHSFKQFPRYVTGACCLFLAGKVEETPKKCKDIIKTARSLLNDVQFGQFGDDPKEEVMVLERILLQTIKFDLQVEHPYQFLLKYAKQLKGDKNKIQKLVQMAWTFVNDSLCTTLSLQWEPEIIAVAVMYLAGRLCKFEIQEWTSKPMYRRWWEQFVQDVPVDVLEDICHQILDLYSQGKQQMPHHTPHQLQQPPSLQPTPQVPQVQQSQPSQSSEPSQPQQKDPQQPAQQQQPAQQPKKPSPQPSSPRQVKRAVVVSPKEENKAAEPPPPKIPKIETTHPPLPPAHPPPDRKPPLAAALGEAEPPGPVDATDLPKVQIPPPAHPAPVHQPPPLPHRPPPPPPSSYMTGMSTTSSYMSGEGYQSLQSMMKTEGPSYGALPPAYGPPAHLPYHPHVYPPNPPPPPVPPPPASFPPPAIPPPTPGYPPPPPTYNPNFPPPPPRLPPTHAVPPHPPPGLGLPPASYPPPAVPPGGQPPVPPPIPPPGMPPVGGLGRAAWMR
- assayDetails: LANCE Ultra kinase assay, CDK13
- Type: biochemical
- testConditions: 30 nM enzyme, 60 min pre-incubation, ULight-4E-BP1 150 nM; read-out: CDK13 IC50
pIC50: −log10 of the molar value.

I'd like to know its pIC50. The compound in question is `C=CC(=O)Nc1cc(N(C(=O)N[C@H](C)c2ccccc2)[C@H]2CC[C@H](Nc3ccc(C#N)cn3)CC2)ccc1N1CCN(C)[C@@H](C)C1`
6.30 to 7.30

I'd like to know its pIC50. The compound in question is `C=CC(=O)Nc1cc(N(C(=O)NCC2CC2)[C@H]2CC[C@H](Nc3ccc(C#N)cn3)CC2)ccc1N1CCN(C)[C@@H](C)C1`
6.30 to 7.30

I'd like to know its pIC50. The compound in question is `C=CC(=O)Nc1cc(N(C(=O)NCc2ccccc2)[C@H]2CC[C@H](Nc3ccc(C#N)cn3)CC2)ccc1N1CCN(C(C)=O)CC1`
7.30 to 7.82

I'd like to know its pIC50. The compound in question is `C=CC(=O)Nc1cc(N(C(=O)NCc2ccccc2)[C@H]2CC[C@H](Nc3ccc(C#N)cn3)CC2)ccc1N1CCN[C@@H](C)C1`
> 7.82

I'd like to know its pIC50. The compound in question is `C=CC(=O)Nc1cc(N(C(=O)NCc2ccccc2)[C@H]2CC[C@H](Nc3ccc(C#N)cn3)CC2)cc(F)c1N1CCN(C)[C@@H](C)C1`
7.30 to 7.82

I'd like to know its pIC50. The compound in question is `C=CC(=O)Nc1cc(N(C(=O)NCc2ccccc2)[C@H]2CC[C@H](Nc3ccc(Cl)cn3)CC2)ccc1N1CCN(C)[C@@H](C)C1`
7.30 to 7.82

I'd like to know its pIC50. The compound in question is `C=CC(=O)Nc1cc(N(C(=O)NCc2ccccc2)[C@H]2CC[C@H](Nc3ccc(C#N)cn3)CC2)ccc1N1CC(N(C)C)C1`
6.30 to 7.30

I'd like to know its pIC50. The compound in question is `C=CC(=O)Nc1cc(N(C(=O)NCC2COC2)[C@H]2CC[C@H](Nc3ccc(C#N)cn3)CC2)ccc1N1CCN(C)[C@@H](C)C1`
< 6.30

I'd like to know its pIC50. The compound in question is `C=CC(=O)Nc1cc(N(C(=O)NCc2ccccc2)[C@H]2CC[C@H](Nc3ccc(C#N)cn3)CC2)ccc1N1CCN(C2COC2)CC1`
6.30 to 7.30

I'd like to know its pIC50. The compound in question is `C=CC(=O)Nc1cc(N(C(=O)NCc2ccccc2F)[C@H]2CC[C@H](Nc3ccc(C#N)cn3)CC2)ccc1N1CCN(C)[C@@H](C)C1`
> 7.82

I'd like to know its pIC50. The compound in question is `C=CC(=O)Nc1cc(N(C(=O)NCc2ccccc2)[C@H]2CC[C@H](Nc3ccc(C#N)cn3)CC2)ccc1N1CCN(C)[C@@H](C)C1`
7.30 to 7.82

I'd like to know its pIC50. The compound in question is `C=CC(=O)Nc1cc(N(C(=O)NCC(F)(F)F)[C@H]2CC[C@H](Nc3ccc(C#N)cn3)CC2)ccc1N1CCN(C)[C@@H](C)C1`
6.30 to 7.30

I'd like to know its pIC50. The compound in question is `C=CC(=O)Nc1cc(N(C(=O)NCc2cccnc2)[C@H]2CC[C@H](Nc3ccc(C#N)cn3)CC2)ccc1N1CCN(C)[C@@H](C)C1`
6.30 to 7.30

---

So I've got a bunch of compounds here, and I need their IC50 values.
- targetEntity: CDK12 (Homo sapiens (Human), UniProt Q9NYV4)
- Sequence (Q9NYV4 whole entry): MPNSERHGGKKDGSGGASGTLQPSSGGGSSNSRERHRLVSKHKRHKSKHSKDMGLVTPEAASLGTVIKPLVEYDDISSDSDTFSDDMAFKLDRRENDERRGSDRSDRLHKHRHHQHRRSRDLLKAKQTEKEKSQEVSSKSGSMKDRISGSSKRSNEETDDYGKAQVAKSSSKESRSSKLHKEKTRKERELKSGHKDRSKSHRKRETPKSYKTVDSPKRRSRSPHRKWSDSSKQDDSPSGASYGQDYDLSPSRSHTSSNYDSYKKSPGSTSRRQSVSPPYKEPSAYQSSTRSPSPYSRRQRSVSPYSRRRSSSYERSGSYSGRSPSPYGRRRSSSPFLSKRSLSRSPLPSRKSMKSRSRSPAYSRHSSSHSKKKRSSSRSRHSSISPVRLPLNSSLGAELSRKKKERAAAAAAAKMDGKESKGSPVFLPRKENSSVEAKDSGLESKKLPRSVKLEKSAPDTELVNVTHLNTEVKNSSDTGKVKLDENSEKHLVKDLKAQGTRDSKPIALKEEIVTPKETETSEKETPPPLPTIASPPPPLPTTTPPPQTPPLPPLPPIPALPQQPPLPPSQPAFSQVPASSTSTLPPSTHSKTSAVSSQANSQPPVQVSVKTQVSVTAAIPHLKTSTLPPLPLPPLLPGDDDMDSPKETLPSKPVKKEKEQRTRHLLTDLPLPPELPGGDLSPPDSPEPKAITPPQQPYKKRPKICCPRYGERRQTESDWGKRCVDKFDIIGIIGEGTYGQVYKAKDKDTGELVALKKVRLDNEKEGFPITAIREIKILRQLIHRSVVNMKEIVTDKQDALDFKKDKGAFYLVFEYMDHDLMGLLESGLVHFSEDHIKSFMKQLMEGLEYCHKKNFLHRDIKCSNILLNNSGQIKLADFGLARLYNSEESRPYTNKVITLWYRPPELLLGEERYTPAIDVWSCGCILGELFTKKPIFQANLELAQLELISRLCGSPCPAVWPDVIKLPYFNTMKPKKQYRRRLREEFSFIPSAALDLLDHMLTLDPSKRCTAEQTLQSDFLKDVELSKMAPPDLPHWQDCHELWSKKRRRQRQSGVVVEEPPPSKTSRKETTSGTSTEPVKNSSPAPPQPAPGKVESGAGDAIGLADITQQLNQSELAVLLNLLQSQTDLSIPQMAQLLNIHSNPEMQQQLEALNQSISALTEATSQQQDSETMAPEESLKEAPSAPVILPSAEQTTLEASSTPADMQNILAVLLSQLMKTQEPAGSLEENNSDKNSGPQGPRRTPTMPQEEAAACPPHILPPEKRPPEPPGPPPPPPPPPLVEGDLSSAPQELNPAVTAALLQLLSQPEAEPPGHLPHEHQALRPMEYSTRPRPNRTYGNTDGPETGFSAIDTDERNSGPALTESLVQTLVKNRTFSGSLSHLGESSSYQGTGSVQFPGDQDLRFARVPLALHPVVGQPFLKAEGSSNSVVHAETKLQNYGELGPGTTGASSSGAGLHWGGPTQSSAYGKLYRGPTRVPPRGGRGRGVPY
- Sequence (O75909 whole entry partner): as the sequence (O75909 whole entry partner, looked up) above
- assayDetails: LANCE Ultra kinase assay, CDK12
- Type: biochemical
- testConditions: 30 nM enzyme, 60 min pre-incubation, ULight-4E-BP1 150 nM; read-out: CDK12 IC50

I'd like to know its IC50. The compound in question is `C=CC(=O)Nc1cc(N(C(=O)NCC2COC2)[C@H]2CC[C@H](Nc3ccc(C#N)cn3)CC2)ccc1N1CCN(C)[C@@H](C)C1`
> 500 nM

I'd like to know its IC50. The compound in question is `C=CC(=O)Nc1cc(N(C(=O)N[C@H](C)c2ccccc2)[C@H]2CC[C@H](Nc3ccc(C#N)cn3)CC2)ccc1N1CCN(C)[C@@H](C)C1`
> 500 nM

I'd like to know its IC50. The compound in question is `C=CC(=O)Nc1cc(N(C(=O)NCc2ccccc2)[C@H]2CC[C@H](Nc3ccc(C#N)cn3)CC2)ccc1N1CCN(C(C)=O)CC1`
15 to 50 nM

I'd like to know its IC50. The compound in question is `C=CC(=O)Nc1cc(N(C(=O)NCc2cccc(F)c2)[C@H]2CC[C@H](Nc3ccc(C#N)cn3)CC2)ccc1N1CCN(C)[C@@H](C)C1`
15 to 50 nM

I'd like to know its IC50. The compound in question is `C=CC(=O)Nc1cc(N(C(=O)NCc2ccccc2)[C@H]2CC[C@H](Nc3ccc(C#N)cn3)CC2)cc(F)c1N1CCN(C)[C@@H](C)C1`
50 to 500 nM

I'd like to know its IC50. The compound in question is `C=CC(=O)Nc1cc(N(C(=O)NCc2ccccc2Cl)[C@H]2CC[C@H](Nc3ccc(C#N)cn3)CC2)ccc1N1CCN(C)[C@@H](C)C1`
< 15 nM

I'd like to know its IC50. The compound in question is `C=CC(=O)Nc1cc(N(C(=O)NCc2ccccc2)[C@H]2CC[C@H](Nc3ccc(C#N)cn3)CC2)ccc1N1CCN(C2COC2)CC1`
50 to 500 nM

I'd like to know its IC50. The compound in question is `C=CC(=O)Nc1cc(N(C(=O)NCC(F)(F)F)[C@H]2CC[C@H](Nc3ccc(C#N)cn3)CC2)ccc1N1CCN(C)[C@@H](C)C1`
50 to 500 nM

I'd like to know its IC50. The compound in question is `C=CC(=O)Nc1cc(N(C(=O)NCc2ccccc2)[C@H]2CC[C@H](Nc3ccc(C(F)(F)F)cn3)CC2)ccc1N1CCN(C)[C@@H](C)C1`
15 to 50 nM

I'd like to know its IC50. The compound in question is `C=CC(=O)Nc1cc(N(C(=O)NCc2ccccc2)[C@H]2CC[C@H](Nc3ccc(C#N)cn3)CC2)ccc1N1CCOCC1`
50 to 500 nM

I'd like to know its IC50. The compound in question is `C=CC(=O)Nc1cc(N(C(=O)NCc2ccccc2)[C@H]2CC[C@H](Nc3ccc(C#N)cn3)CC2)ccc1-c1ccc(=O)n(C)c1`
15 to 50 nM

I'd like to know its IC50. The compound in question is `C=CC(=O)Nc1cc(N(C(=O)NCC2CC2)[C@H]2CC[C@H](Nc3ccc(C#N)cn3)CC2)ccc1N1CCN(C)[C@@H](C)C1`
50 to 500 nM

I'd like to know its IC50. The compound in question is `C=CC(=O)Nc1cc(N(C(=O)NCc2cccnc2)[C@H]2CC[C@H](Nc3ccc(C#N)cn3)CC2)ccc1N1CCN(C)[C@@H](C)C1`
50 to 500 nM

I'd like to know its IC50. The compound in question is `C=CC(=O)Nc1cc(N(C(=O)NCc2ccccc2F)[C@H]2CC[C@H](Nc3ccc(C#N)cn3)CC2)ccc1N1CCN(C)[C@@H](C)C1`
15 to 50 nM

I'd like to know its IC50. The compound in question is `C=CC(=O)Nc1cccc(N(C(=O)NCc2ccccc2)[C@H]2CC[C@H](Nc3ccc(C#N)cn3)CC2)c1`
> 500 nM

I'd like to know its IC50. The compound in question is `C=CC(=O)Nc1cc(N(C(=O)NC2CC2)[C@H]2CC[C@H](Nc3ccc(C#N)cn3)CC2)ccc1N1CCN(C)[C@@H](C)C1`
50 to 500 nM

I'd like to know its IC50. The compound in question is `C=CC(=O)Nc1cc(N(C(=O)NCc2cocn2)[C@H]2CC[C@H](Nc3ccc(C#N)cn3)CC2)ccc1N1CCN(C)[C@@H](C)C1`
50 to 500 nM

I'd like to know its IC50. The compound in question is `C=CC(=O)Nc1cc(N(C(=O)NCc2ccccc2)[C@H]2CC[C@H](Nc3ccc(C#N)cn3)CC2)ccc1N(C)CCN(C)C`
50 to 500 nM

---

- targetEntity: CDK12 (Homo sapiens (Human))
- assayDetails: LANCE Ultra kinase assay, CDK12
- Assay type: biochemical
- testConditions: 30 nM enzyme, 60 min pre-incubation, ULight-4E-BP1 150 nM; read-out: CDK12 IC50
pIC50: −log10 of the molar value.
So I've got a bunch of compounds here, and I need their pIC50 values.

Identify the measured pIC50 of `C=CC(=O)Nc1cc(N(C(=O)NCc2ccccc2)[C@H]2CC[C@H](Nc3ccc(C#N)cn3)CC2)cnc1N1CCN(C)[C@@H](C)C1` for CDK12 (Homo sapiens (Human)).
> 7.82

Identify the measured pIC50 of `C=CC(=O)Nc1cc(N(C(=O)NCc2ccccc2)[C@H]2CC[C@H](Nc3ccc(C#N)cn3)CC2)ccc1Br` for CDK12 (Homo sapiens (Human)).
7.30 to 7.82

Identify the measured pIC50 of `C=CC(=O)Nc1cc(N(C(=O)NCc2cnn(C)c2)[C@H]2CC[C@H](Nc3ccc(C#N)cn3)CC2)ccc1N1CCN(C)[C@@H](C)C1` for CDK12 (Homo sapiens (Human)).
< 6.30

Identify the measured pIC50 of `C=CC(=O)Nc1cc(N(C(=O)NCc2ccccc2)[C@H]2CC[C@H](Nc3ccc(C#N)cn3)CC2)ccc1N1CCN(C)CC1` for CDK12 (Homo sapiens (Human)).
6.30 to 7.30

Identify the measured pIC50 of `C=CC(=O)Nc1cc(N(C(=O)NCc2ccc(F)cc2)[C@H]2CC[C@H](Nc3ccc(C#N)cn3)CC2)ccc1N1CCN(C)[C@@H](C)C1` for CDK12 (Homo sapiens (Human)).
7.30 to 7.82

Identify the measured pIC50 of `C=CC(=O)Nc1cc(N(C(=O)NCc2ccccc2)[C@H]2CC[C@H](Nc3ccc(C#N)cn3)CC2)ccc1N1CCN[C@@H](C)C1` for CDK12 (Homo sapiens (Human)).
7.30 to 7.82

Identify the measured pIC50 of `C=CC(=O)Nc1cc(N(C(=O)N[C@@H](C)c2ccccc2)[C@H]2CC[C@H](Nc3ccc(C#N)cn3)CC2)ccc1N1CCN(C)[C@@H](C)C1` for CDK12 (Homo sapiens (Human)).
7.30 to 7.82

Identify the measured pIC50 of `C=CC(=O)Nc1cc(N(C(=O)NCc2ccccc2)[C@H]2CC[C@H](Nc3ccc(C#N)cn3)CC2)ccc1N1CC(N(C)C)C1` for CDK12 (Homo sapiens (Human)).
6.30 to 7.30

Identify the measured pIC50 of `C=CC(=O)Nc1cc(N(C(=O)NCc2ccccc2)[C@H]2CC[C@H](Nc3ccc(C#N)cn3)CC2)ccc1N1C[C@H]2C[C@@H]1CN2C` for CDK12 (Homo sapiens (Human)).
7.30 to 7.82

Identify the measured pIC50 of `C=C(F)C(=O)Nc1cc(N(C(=O)NCc2ccccc2)[C@H]2CC[C@H](Nc3ccc(C#N)cn3)CC2)ccc1N1CCN(C)[C@@H](C)C1` for CDK12 (Homo sapiens (Human)).
6.30 to 7.30

Identify the measured pIC50 of `C=CC(=O)Nc1cc(N(C(=O)NCc2ccccc2)[C@H]2CC[C@H](Nc3ccc(C#N)cn3)CC2)ccc1N1CCN(C)[C@@H](C)C1` for CDK12 (Homo sapiens (Human)).
7.30 to 7.82

Identify the measured pIC50 of `C=CC(=O)Nc1cc(N(C(=O)NCc2ccccc2)[C@H]2CC[C@H](Nc3ccc(Cl)cn3)CC2)ccc1N1CCN(C)[C@@H](C)C1` for CDK12 (Homo sapiens (Human)).
7.30 to 7.82

Identify the measured pIC50 of C=CC(=O)Nc1cc(N(C(=O)NCc2ccccc2)[C@H]2CC[C@H](Nc3ccc(C#N)cn3)CC2)ccc1N1CCC(N(C)C)C1 (stereo partly shown) for CDK12 (Homo sapiens (Human)).
< 6.30

Measured values drawn from patent US20250100994A1 for this set.
